The measured values listed here are drawn from patent US20240300975A1.

# measurement-description: In vivo PK study in beagle dogs
# measurement-setup: dog, plasma; male beagle dogs, single administration
# Protocol: Male beagle dogs were used as assay animals. After a single administration, the plasma concentration of the compound was measured and the pharmacokinetic behavior was evaluated. Five healthy adult male beagle dogs were selected, wherein 2 were in an intravenous injection group, and 3 were in an oral group. The vehicle in the intravenous injection group was 5% DMSO+95% (20% HP-β-CD). […] The clear solution was filtered by a microporous membrane, and then ready for use. […]
parameter-measured: half-life (h)
Reply with just the number (in h).

What does the record list as half-life for Cc1cccc(CN2C(=O)c3nc(-c4nc(Nc5ccnn5C)ncc4C)sc3C2(C)C)n1 [WX001] ?
1.09
